Molecular target: T1, 14-3-3η (purified, recombinant) (UniProt Q04917 1-246)
T1 chain: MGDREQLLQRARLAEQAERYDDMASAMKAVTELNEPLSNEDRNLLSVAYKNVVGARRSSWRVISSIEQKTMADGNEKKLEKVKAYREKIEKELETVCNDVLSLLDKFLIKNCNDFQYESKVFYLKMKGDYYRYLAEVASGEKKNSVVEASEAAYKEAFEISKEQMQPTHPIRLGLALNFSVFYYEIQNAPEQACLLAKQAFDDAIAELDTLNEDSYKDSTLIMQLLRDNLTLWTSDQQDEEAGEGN
Assay: FP
Square brackets hold non-standard residues; d marks the D form. Ends that are not written are not given here. * marks the point of attachment. FITC = O=C1OC2(c3ccc(O)cc3Oc3cc(O)ccc32)c2ccc(NC(=S)*)cc21; pS = N[C@@H](COP(=O)(O)O)C(=O)O
Measurement Kind: Kd (µM)
Numbers only, in µM.

Tell me Kd reported for {FITC}-RSRTP[pS]LPTPPTR [Tau^209-221 p-S214]
21

These entries and their values trace back to paper PMC13598245.
